ASSAY_TARGET: T1, cynomolgus monkey CD73 (on transfected CHOK1 cells) (cynomolgus monkey, UniProt A0A2K5V5U7 27-549)
T1 construct: whole, on cells; also called CHOK1-cCD73; CHOK1-CCD73
T1 sequence: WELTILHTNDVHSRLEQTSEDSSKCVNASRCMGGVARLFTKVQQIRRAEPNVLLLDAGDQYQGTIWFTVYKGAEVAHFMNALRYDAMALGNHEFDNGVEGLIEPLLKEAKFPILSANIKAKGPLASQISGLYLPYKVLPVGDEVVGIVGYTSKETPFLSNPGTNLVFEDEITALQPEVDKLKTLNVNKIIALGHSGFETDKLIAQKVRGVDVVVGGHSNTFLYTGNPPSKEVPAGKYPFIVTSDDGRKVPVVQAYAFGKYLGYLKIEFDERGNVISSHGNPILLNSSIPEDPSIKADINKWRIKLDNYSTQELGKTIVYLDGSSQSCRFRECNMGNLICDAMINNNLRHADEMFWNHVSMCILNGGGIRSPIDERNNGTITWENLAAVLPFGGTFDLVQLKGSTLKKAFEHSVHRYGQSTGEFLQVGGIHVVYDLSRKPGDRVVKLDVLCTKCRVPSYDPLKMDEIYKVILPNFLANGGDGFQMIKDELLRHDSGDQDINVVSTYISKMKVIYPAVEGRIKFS
ASSAY_EXPLANATION: FACS on CHOK1-cCD73 cells
ASSAY_READOUT: MAX MFI fold
For clarity, give the value followed by its unit.

GET /values?readout=MAX MFI fold&item= mab038xhIgG1TM (clone 69C9E12), mouse-human chimeric anti-CD73 antibody (antibody, V domains shown, also called mAb038 chimeric antibody) VH: QVQLQQPGTELVNPGASVKLSCKASGYTFTSYWMHWVKQRPGQGLEWIGNINPSNGGTHYNEKFNNKATLTVDKSSSTAYMQLSSLTSEDSAVFYCARGDYAYDWYFTVWGTGTTVTVSS VL: DIVLTQSPASLAVSLGQRAIISCKASQSVSFAGTGLMHWYQQKPGQQPKLLIYRVSNLEAGIPTRFSGSGSRTDFTLNIHPVEEDDAATYYCQQNREFPWTFGGGTKLEIK
167 fold

Where do these numbers come from? They come from patent US20220098319A1.
